Protocol details: Maximum velocity against human liver microsomes; (n=6)
Assay type: ADME, Microsome
Documented Vmax across a set of molecules
Hi! Could you send only the number? It should be in nmol/min/mg, unit omitted.

| Chemical structure | Measurement units | Assay value |
| --- | --- | --- |
| CC(C)NC(=N)NC(=N)NOCCCOc1ccc(OC(F)(F)F)cc1 | nmol/min/mg | 13.5 |
| CC(C)NC(=N)NC(=N)NOCCCOc1ccc(Cl)c(Cl)c1 | nmol/min/mg | 27.7 |
| CC(C)/N=C(N)/N=C(/N)NOCCCOc1ccc(OCC(F)(F)F)cc1 | nmol/min/mg | 18.7 |
| [H]/N=C(\N/C(=N/[H])Nc1ccc(Cl)cc1)NC(C)C | nmol/min/mg | 19.6 |
| CC(C)/N=C(N)/N=C(/N)NOCCCOc1ccc(C(F)(F)F)cc1Cl | nmol/min/mg | 15.4 |
| CC(C)NC(=N)NC(=N)NOCCCOc1cc(Cl)c(Cl)cc1Cl | nmol/min/mg | 11.6 |

Fill in the blank: the reported Vmax of CC(C)/N=C(N)/N=C(/N)NOCCCOc1ccccc1OC(F)(F)F is ____. 13.3

How about this molecule: CC(C)/N=C(N)/N=C(/N)NOCCCOc1ccc(C(F)(F)F)cc1 10.8

---

Tested on: Plasmodium falciparum
Protocol details: In vitro antimalarial activity for DHFR wild-type, chloroquine and pyrimethamine-sensitive Plasmodium falciparum D6
Assay type: functional, organism-based
Documented IC50 across a set of molecules
Hi! Could you send only the number? It should be in ng/mL, unit omitted.

Would you please look over these solved cases?
| Chemical structure | IC50 (ng/mL) |
| --- | --- |
| CC1(C)N=C(N)N=C(N)N1OCCCOc1ccc(Cl)c(Cl)c1 | 0.009 |
| CC1(C)N=C(N)N=C(N)N1c1ccc(Cl)cc1 | 0.328 |
| CC1(C)N=C(N)N=C(N)N1OCCCOc1ccc(OC(F)(F)F)cc1Cl | 0.01 |

Let us move to another entry and its IC50.
Fill in the blank: the reported IC50 of CC(C)NC(=N)NC(=N)NOCCCOc1cc(Cl)c(Cl)cc1Cl is ____. 877

---

Tested on: Plasmodium falciparum
Protocol details: In vitro antimalarial activity for DHFR wild-type, chloroquine and pyrimethamine-sensitive Plasmodium falciparum D6
Assay type: functional, organism-based
Documented IC50 across a set of compounds
Hi! Could you send only the number? It should be in ng/mL, unit omitted.

| Chemical structure | Tested target | Quantity kind | Measurement units | Assay value |
| --- | --- | --- | --- | --- |
| CC1(C)N=C(N)N=C(N)N1OCCCOc1ccccc1OC(F)(F)F | Plasmodium falciparum | IC50 | ng/mL | 0.022 |
| CCc1nc(N)nc(N)c1-c1ccc(Cl)cc1 | Plasmodium falciparum | IC50 | ng/mL | 1.2 |
| CC1(C)N=C(N)N=C(N)N1OCCCOc1cc(Cl)c(Cl)cc1Cl | Plasmodium falciparum | IC50 | ng/mL | 0.02 |

Fill in the blank: the reported IC50 of CC1(C)N=C(N)N=C(N)N1OCCCOc1ccc(OC(F)(F)F)cc1 is ____. 0.01

How about this compound: CC(C)NC(=N)NC(=N)NOCCCOc1ccc(Cl)c(Cl)c1 845

How about this compound: CC1(C)N=C(N)N=C(N)N1OCCCOc1ccc(OCC(F)(F)F)cc1Cl 0.022

How about this compound: CC(C)/N=C(N)/N=C(/N)NOCCCOc1ccc(C(F)(F)F)cc1Cl 2230

How about this compound: CC1(C)N=C(N)N=C(N)N1OCCCOc1ccc(C(F)(F)F)cc1 0.01
